Molecular target: cathepsin D isolated from the human liver (Homo sapiens, UniProt P07339)
Construct: cathepsin D isolated from the human liver (Sigma-Aldrich); purchased Sigma-Aldrich; host or cells: human liver (tissue-derived, not recombinant)
Sequence (P07339 65-161 limits assumed): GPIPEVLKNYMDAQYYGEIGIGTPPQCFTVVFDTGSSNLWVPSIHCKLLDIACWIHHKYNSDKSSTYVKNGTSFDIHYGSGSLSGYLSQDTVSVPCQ
Sequence (P07339 169-412 limits assumed): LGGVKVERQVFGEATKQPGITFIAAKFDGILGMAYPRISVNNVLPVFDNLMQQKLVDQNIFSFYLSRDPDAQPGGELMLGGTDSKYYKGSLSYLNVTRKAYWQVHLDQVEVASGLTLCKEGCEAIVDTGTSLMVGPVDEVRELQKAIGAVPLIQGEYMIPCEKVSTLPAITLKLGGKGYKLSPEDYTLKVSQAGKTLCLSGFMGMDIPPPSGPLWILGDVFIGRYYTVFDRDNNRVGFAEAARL
Experiment: In-vitro fluorescence assay for identification of cathepsin D inhibitors
Assay type: biochemical
Details: human liver cathepsin D 1.4 nM, pH 5.5; read-out: CatD assay IC50-(M)
*1 amine or outer side, *2 acyl side, *3 side chain or, on linkers, in order; H or OH if unused. Where a SMILES comes first, the peptide text is derived from it. [ ]: non-standard residue; d: D form. The star is where a group is joined. Ahppa(3S,4S) = O=C(C[C@H](O)[C@H](Cc1ccccc1)N[*:1])[*:2]; Isovaleryl = CC(C)CC(=O)*; PhAc = O=C(Cc1ccccc1)*; OBn = c1ccc(CO*)cc1
readout-name: IC50 (M)

1. CC[C@H](C)[C@H](NC(=O)C[C@H](O)[C@H](Cc1ccccc1)NC(=O)[C@@H](NC(=O)CCCc1ccccc1)C(C)C)C(=O)N[C@H](C(=O)O)C(C)C: 3.41e-08
2. CC[C@H](C)[C@H](NC(=O)C[C@H](O)[C@H](Cc1ccccc1)NC(=O)[C@@H](NC(=O)Cc1cccc2ccccc12)C(C)C)C(=O)N[C@H](C(=O)OCc1ccccc1)C(C)C: 1.2e-06
3. CC[C@H](C)[C@H](NC(=O)C[C@H](O)[C@H](Cc1ccccc1)NC(=O)[C@@H](NC(=O)Cc1cccc(Oc2ccccc2)c1)C(C)C)C(=O)N[C@H](C(=O)O)C(C)C: 1.2e-08
4. CC[C@H](C)[C@H](NC(=O)C[C@H](O)[C@H](Cc1ccccc1)NC(=O)[C@@H](NC(=O)Cc1ccc(OC)c(OC)c1)C(C)C)C(=O)N[C@H](C(=O)O)C(C)C: 1.5e-07
5. CC[C@H](C)[C@H](NC(=O)C[C@H](O)[C@H](Cc1ccccc1)NC(=O)[C@H](NC(=O)[C@H](CC(C)C)NC(=O)CC(C)C)C(C)C)C(=O)N[C@H](C(=O)O)C(C)C [Compound 9] (Isovaleryl-L[dV][Ahppa(3S,4S)]IV-OH): 7.51e-08
6. CC[C@H](C)[C@H](NC(=O)C[C@H](O)[C@H](Cc1ccccc1)NC(=O)[C@@H](NC(=O)Cc1ccc2ccccc2c1)C(C)C)C(=O)N[C@H](C(=O)OCc1ccccc1)C(C)C: 1.5e-07
7. CCOc1cccc(CC(=O)N[C@H](C(=O)N[C@@H](Cc2ccccc2)[C@@H](O)CC(=O)N[C@H](C(=O)N[C@H](C(=O)O)C(C)C)[C@@H](C)CC)C(C)C)c1: 1.55e-08
8. CC[C@H](C)[C@H](NC(=O)C[C@H](O)[C@H](Cc1ccccc1)NC(=O)[C@@H](NC(=O)COc1ccc(C)c(C)c1)C(C)C)C(=O)N[C@H](C(=O)O)C(C)C: 1e-07
9. CC[C@H](C)[C@H](NC(=O)C[C@H](O)[C@H](Cc1ccccc1)NC(=O)[C@@H](NC(=O)Cc1ccc(OC)c(OC)c1)C(C)C)C(=O)N[C@H](C(=O)OCc1ccccc1)C(C)C: 2.9e-08
10. CC[C@H](C)[C@H](NC(=O)C[C@H](O)[C@H](Cc1ccccc1)NC(=O)[C@@H](NC(=O)[C@H](CC(C)C)NC(=O)Cc1ccccc1)C(C)C)C(=O)N[C@H](C(=O)OCc1ccccc1)C(C)C [Compound 44] (PhAc-LV[Ahppa(3S,4S)]IV-OBn): 2.1e-09
11. CC[C@H](C)[C@H](NC(=O)C[C@H](O)[C@H](Cc1ccccc1)NC(=O)[C@@H](NC(=O)C(C)(C)Oc1ccc2ccccc2c1)C(C)C)C(=O)N[C@H](C(=O)OCc1ccccc1)C(C)C: 2.3e-07
12. CCC[C@H](NC(=O)C[C@H](O)[C@H](Cc1ccccc1)NC(=O)[C@@H](NC(=O)[C@H](CC(C)C)NC(=O)CC(C)C)C(C)C)C(=O)NC(CC)CC: 2.6e-10
13. CC[C@H](C)[C@H](NC(=O)C[C@H](O)[C@H](Cc1ccccc1)NC(=O)[C@@H](NC(=O)Cc1cc(OC(F)(F)F)ccc1OC)C(C)C)C(=O)N[C@H](C(=O)OCc1ccccc1)C(C)C: 3.4e-08
14. CC[C@H](C)[C@H](NC(=O)C[C@H](O)[C@H](Cc1ccccc1)NC(=O)[C@@H](NC(=O)[C@@H](O)c1ccccc1)C(C)C)C(=O)N[C@H](C(=O)O)C(C)C: 3.1e-07
15. CC[C@H](C)[C@H](NC(=O)C[C@H](O)[C@H](Cc1ccccc1)NC(=O)[C@@H](NC(=O)[C@H](CC(C)C)NC(=O)CC(C)C)C(C)C)C(=O)NC1CCCC1: 1.8e-09
16. CC[C@H](C)[C@H](NC(=O)C[C@H](O)[C@H](Cc1ccccc1)NC(=O)[C@@H](NC(=O)COc1ccc2ccccc2c1)C(C)C)C(=O)N[C@H](C(=O)OCc1ccccc1)C(C)C: 3.5e-07
17. CC[C@H](C)[C@H](NC(=O)C[C@H](O)[C@H](Cc1ccccc1)NC(=O)[C@@H](NC(=O)CCc1ccccc1)C(C)C)C(=O)N[C@H](C(=O)OCc1ccccc1)C(C)C: 7.9e-08
18. CC[C@H](C)[C@H](NC(=O)C[C@H](O)[C@H](Cc1ccccc1)NC(=O)[C@@H](NC(=O)Cc1cccc(OCCNC(=O)OC(C)(C)C)c1)[C@@H](C)CC)C(=O)N[C@H](C(=O)O)C(C)C: 3.9e-08
19. CCCOc1cccc(CC(=O)N[C@H](C(=O)N[C@@H](Cc2ccccc2)[C@@H](O)CC(=O)N[C@H](C(=O)N[C@H](C(=O)O)C(C)C)[C@@H](C)CC)[C@@H](C)CC)c1: 1.7e-08
